Would you mind telling me the reported EC50 of each entry?
# System: HCV pseudoparticles
# ASSAY_DETAILS: HCV pseudoparticle infection assay (luciferase reporter, Huh7 cells)
# Format: cell-based, HCV (genotype 1b E1 and E2 envelope)
# STATED_CONDITIONS: Hepatitis C virus, genotype 1b, Huh-7, 48 h, HCV pseudoparticles (genotype 1b), luciferase activity 2 days after infection, class

# compound CS(=O)(=O)NC(=O)[C@@]1(NC(=O)CCCNC(=O)c2ccc(Nc3nc(NC4(c5ccc(Cl)cc5)CC4)nc(OCC(F)(F)F)n3)cc2)C[C@H]1C1CC1 [Example 2039] ; its EC50 = 0.5 to 100 nM

Documented EC50 of O=C(CCCNC(=O)c1ccc(Nc2nc(NC3(c4ccc(Cl)cc4)CC3)nc(OCC(F)(F)F)n2)cc1)N[C@]1(C(=O)NS(=O)(=O)C2CC2)C[C@H]1C(F)F [Example 2038] : 0.5 to 100 nM

Given item C=C[C@@H]1C[C@]1(NC(=O)C1(CNC(=O)c2ccc(Nc3nc(NC4(c5ccc(Cl)cc5)CC4)nc(OCC(F)(F)F)n3)cc2)CC1)C(=O)NS(=O)(=O)C1CCC1 [Example 2069] , the value recorded as its EC50 is 0.5 to 100 nM

---

# Test system: HCV pseudoparticles
# ASSAY_DETAILS: HCV pseudoparticle infection assay (luciferase reporter, Huh7 cells)
# Type: cell-based, HCV (genotype 1b E1 and E2 envelope)
# STATED_CONDITIONS: Hepatitis C virus, genotype 1b, Huh-7, 48 h, HCV pseudoparticles (genotype 1b), luciferase activity 2 days after infection, class
Field: EC50. Provide a value for each of the compounds that follow.

HCV pseudoparticles EC50 of CCS(=O)(=O)NC(=O)C1(CNC(=O)c2ccc(Nc3nc(NC4(c5ccc(Cl)cc5)CC4)nc(OCC(F)(F)F)n3)cc2)CC1 is 0.5 to 100 nM

Item O=C(NCCS(=O)(=O)NC(=O)c1ccc(Nc2nc(NC3(c4ccc(Cl)cc4)CC3)nc(OCC(F)(F)F)n2)cc1)Nc1cccnc1 ; assay system HCV pseudoparticles; EC50 reported as 0.5 to 100 nM

Observed EC50, HCV pseudoparticles, O=C(NS(=O)(=O)c1ccc(Nc2nc(NC3(c4ccc(Cl)cc4)CC3)nc(OCC(F)(F)F)n2)cc1)C1(CN2CCCC2)CC1 : 1000 to 5000 nM

---

# System: HCV pseudoparticles
# ASSAY_DETAILS: HCV pseudoparticle infection assay (luciferase reporter, Huh7 cells)
# Format: cell-based, HCV (genotype 1b E1 and E2 envelope)
# STATED_CONDITIONS: Hepatitis C virus, genotype 1b, Huh-7, 48 h, HCV pseudoparticles (genotype 1b), luciferase activity 2 days after infection, class
For each record, write down the corresponding EC50.

// COCC1(S(=O)(=O)N(C)C(=O)c2ccc(Nc3nc(OC)nc(N(C)C4(c5ccc(Cl)cc5)CC4)n3)cc2)CC1 : EC50 value = 1000 to 5000 nM

Summary for this molecule, O=C(Nc1cccnc1)OCC1(S(=O)(=O)NC(=O)c2ccc(Nc3nc(NC4(c5ccc(Cl)cc5)CC4)nc(OCC(F)(F)F)n3)cc2)CC1 : EC50 is 0.5 to 100 nM

Value of measured EC50 for the entry O=C(CCCNC(=O)c1ccc(Nc2nc(NC3(c4ccc(Cl)cc4)CC3)nc(OCC(F)(F)F)n2)cc1)N[C@]1(C(=O)NS(=O)(=O)C2CC2)C[C@H]1C1CC1 : 0.5 to 100 nM

Lab note: CN(C)S(=O)(=O)NC(=O)[C@@]1(NC(=O)CCCNC(=O)c2ccc(Nc3nc(NC4(c5ccc(Cl)cc5)CC4)nc(OCC(F)(F)F)n3)cc2)C[C@H]1C1CC1(F)F (stereo partly drawn) gave EC50 of 0.5 to 100 nM

get_value(item= CC(C)(C)S(=O)(=O)NC(=O)C1(CNC(=O)c2ccc(Nc3nc(NC4(c5ccc(Cl)cc5)CC4)nc(OCC(F)(F)F)n3)cc2)CC1 , readout=EC50) returns 0.5 to 100 nM

Entry O=C(NS(=O)(=O)C1(Cc2ccccc2)CC1)c1ccc(Nc2nc(NC3(c4ccc(Cl)cc4)CC3)nc(OCC(F)(F)F)n2)cc1 ; EC50 = 0.5 to 100 nM

---

# Tested on: HCV pseudoparticles
# ASSAY_DETAILS: HCV pseudoparticle infection assay (luciferase reporter, Huh7 cells)
# Type: cell-based, HCV (genotype 1b E1 and E2 envelope)
# STATED_CONDITIONS: Hepatitis C virus, genotype 1b, Huh-7, 48 h, HCV pseudoparticles (genotype 1b), luciferase activity 2 days after infection, class
REPORTED_PROPERTY: EC50

Form: compound = CC1(C)CCN(CC2(S(=O)(=O)NC(=O)c3ccc(Nc4nc(NC5(c6ccc(Cl)cc6)CC5)nc(OCC(F)(F)F)n4)cc3)CC2)C1 ; EC50 = 0.5 to 100 nM

GET /value?item= CC(C)S(=O)(=O)NC(=O)CCCCNC(=O)c1ccc(Nc2nc(NC3(c4ccc(Cl)cc4)CC3)nc(OCC(F)(F)F)n2)cc1 &field=EC50 returns 0.5 to 100 nM

Short answer for O=C(NS(=O)(=O)CCCCl)c1ccc(Nc2nc(NC3(c4ccc(Cl)cc4)CC3)nc(OCC(F)(F)F)n2)cc1 : EC50 was 0.5 to 100 nM

Values from patent US8765944B2
